Molecular target: Recombinant human TYK2 catalytic domain (amino acids 871-1187) (Homo sapiens, UniProt P29597)
Construct: catalytic domain (amino acids 871-1187)
Sequence (P29597 871-1187): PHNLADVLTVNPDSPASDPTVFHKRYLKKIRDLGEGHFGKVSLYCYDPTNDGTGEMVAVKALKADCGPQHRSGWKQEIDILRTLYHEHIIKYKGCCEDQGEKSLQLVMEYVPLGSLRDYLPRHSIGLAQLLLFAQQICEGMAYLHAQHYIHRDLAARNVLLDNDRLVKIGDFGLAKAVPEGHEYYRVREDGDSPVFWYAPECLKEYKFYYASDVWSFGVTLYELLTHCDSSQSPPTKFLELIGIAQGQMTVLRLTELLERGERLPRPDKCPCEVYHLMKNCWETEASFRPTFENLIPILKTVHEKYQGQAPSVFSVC
Test: TYK2 radioactive assay polyGT substrate; further: 0.1 µM ATP
Type: biochemical
Record form. Attribute: pIC50. Fill in for each entry.
// scale note: pIC50 = -log10(conc_M); give the bare number

query: State the recorded pIC50 for this entry: Cc1cc(C#N)ncc1Oc1cc(Nc2ccc(C(=O)N3CC4(CN(C)C4)C3)cn2)c2ncn(C)c2n1
result: 8.03

query: State the recorded pIC50 for this entry: CC(C)C(Nc1cc(Nc2ccc(S(C)(=O)=O)cn2)c2ncn(C)c2n1)C(F)(F)F (stereo not shown)
result: 8.11

query: State the recorded pIC50 for this entry: COC1CN(C(=O)c2ccc(Nc3cc(Oc4cnc(C#N)cc4C)nc4c3ncn4C)nn2)C1
result: 8.27

query: State the recorded pIC50 for this entry: Cc1cc(C#N)ncc1Oc1cc(Nc2ccc(N3CCC(N(C)C)CC3)cn2)c2ncn(C)c2n1
result: 8.15

query: State the recorded pIC50 for this entry: CCNC(=O)c1ccc(Nc2cc(Oc3cnc(C#N)cc3C)nc3c2ncn3C)nn1
result: 7.74

query: State the recorded pIC50 for this entry: Cc1cc(C#N)ncc1Oc1cc(Nc2ccc(C(N(C)C)C(F)(F)F)cn2)c2ncn(C)c2n1 (stereo not shown)
result: 8.45

query: State the recorded pIC50 for this entry: Cc1cc(C#N)ncc1Oc1cc(Nc2ccc(C(=O)N3CCO[C@H](C)C3)cn2)c2ncn(C)c2n1
result: 8.70

query: State the recorded pIC50 for this entry: Cc1cc(C#N)ncc1N(CC(C)O)c1cc(Nc2cc(N)ncn2)c2ncn(C)c2n1 (stereo not shown)
result: 8.18

query: State the recorded pIC50 for this entry: Cc1cc(C#N)ncc1Oc1cc(Nc2ccc(C(=O)N3CC[C@H](O)C3)cn2)c2ncn(C)c2n1
result: 8.37

query: State the recorded pIC50 for this entry: Cc1cc(C#N)ncc1Oc1cc(Nc2ccc(N3C[C@@H](C)O[C@@H](C)C3)nn2)c2ncn(C)c2n1
result: 8.80

query: State the recorded pIC50 for this entry: Cc1cc(C#N)ncc1Nc1cc(Nc2ccc(C(=O)N(C)C)nn2)c2ncn(C)c2n1
result: 8.17

query: State the recorded pIC50 for this entry: CN(c1cc(Nc2cc(N)ncn2)c2ncn(C)c2n1)C1CCOCC1(C)C (stereo not shown)
result: 8.74

query: State the recorded pIC50 for this entry: COC1CCN(C(=O)c2ccc(Nc3cc(Oc4cnc(C#N)cc4C)nc4c3ncn4C)nc2)CC1
result: 8.65

query: State the recorded pIC50 for this entry: Cc1cc(C#N)ncc1Oc1cc(Nc2ccc(C(=O)N3CC[C@@H](N(C)C)C3)cn2)c2ncn(C)c2n1
result: 8.26

query: State the recorded pIC50 for this entry: Cc1cc(C#N)nnc1Oc1cc(Nc2cc(N)ncn2)c2ncn(C)c2n1
result: 7.90

query: State the recorded pIC50 for this entry: Cc1cc(C#N)ncc1Oc1cc(Nc2ccc(C(=O)N3CCN(C4CCC4)CC3)cn2)c2ncn(C)c2n1
result: 8.69
